Each entry below carries its recorded ED50.
TARGET: 5-HT1A (Rattus norvegicus)
Sequence (P19327 1-422): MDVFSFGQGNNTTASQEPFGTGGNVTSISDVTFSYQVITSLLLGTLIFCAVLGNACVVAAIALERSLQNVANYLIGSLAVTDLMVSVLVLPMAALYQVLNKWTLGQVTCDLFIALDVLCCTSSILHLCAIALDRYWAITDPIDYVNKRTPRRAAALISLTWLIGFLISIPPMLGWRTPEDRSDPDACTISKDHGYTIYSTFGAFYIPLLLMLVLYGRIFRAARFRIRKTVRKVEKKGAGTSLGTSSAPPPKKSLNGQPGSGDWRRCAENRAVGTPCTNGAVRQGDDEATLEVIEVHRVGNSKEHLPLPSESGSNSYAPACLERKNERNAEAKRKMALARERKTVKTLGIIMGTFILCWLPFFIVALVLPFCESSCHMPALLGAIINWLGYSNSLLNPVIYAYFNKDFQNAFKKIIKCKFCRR
ASSAY NAME: Serotoninergic (5-HT) syndrome
Type: in vivo, male rat (Sprague-Dawley)
Parameters: carried out with the male rat (Sprague-Dawley); from tissue; host or cells: whole living rat (in vivo)
CONDITION LABEL: po; lower lip retraction (LLR), male rat; read-out: 5-HT syndrome ED50 LLR
Enter your answer as a number in mg/kg; do not include the unit.

Solved cases (2 shown):
1) Cc1cc(C)nc(N2CCN(CCCCOc3cnn(C)c(=O)n3)CC2)n1.O=C(O)/C=C/C(=O)O 0.08
2) Cc1ccnc(N2CCN(CCCCOc3cnn(C)c(=O)n3)CC2)n1.O=C(O)/C=C/C(=O)O 0.02

Q: Sample Cn1ncc(OCCCCN2CCN(c3ncc(F)cn3)CC2)nc1=O — what was its ED50?
A: 0.08
